# Target System: Inhibitor of nuclear factor kappa-B kinase subunit beta (Homo sapiens) (UniProt O14920)
# Sequence (O14920 whole entry): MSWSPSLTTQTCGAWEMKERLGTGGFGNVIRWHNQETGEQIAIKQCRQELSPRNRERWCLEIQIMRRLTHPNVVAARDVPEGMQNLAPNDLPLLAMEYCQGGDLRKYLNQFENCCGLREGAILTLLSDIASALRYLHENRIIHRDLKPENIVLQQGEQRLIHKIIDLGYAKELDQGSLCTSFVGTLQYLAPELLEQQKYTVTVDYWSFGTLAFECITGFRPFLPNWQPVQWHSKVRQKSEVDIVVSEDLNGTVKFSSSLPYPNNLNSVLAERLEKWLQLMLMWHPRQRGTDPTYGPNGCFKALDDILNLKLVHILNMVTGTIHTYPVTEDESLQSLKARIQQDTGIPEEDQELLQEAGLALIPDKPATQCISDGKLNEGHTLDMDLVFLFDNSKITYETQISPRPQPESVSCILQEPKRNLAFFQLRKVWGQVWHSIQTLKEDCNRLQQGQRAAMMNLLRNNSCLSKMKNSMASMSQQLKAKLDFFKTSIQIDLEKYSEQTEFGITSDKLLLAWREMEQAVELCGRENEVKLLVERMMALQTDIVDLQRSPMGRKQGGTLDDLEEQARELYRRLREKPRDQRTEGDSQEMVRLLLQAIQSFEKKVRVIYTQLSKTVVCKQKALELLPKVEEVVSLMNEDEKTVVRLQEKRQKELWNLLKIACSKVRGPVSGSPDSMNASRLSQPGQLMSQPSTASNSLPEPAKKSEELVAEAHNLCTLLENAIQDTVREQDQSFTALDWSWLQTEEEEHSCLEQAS
# Experimental Details: Inhibition of IKK-beta expressed in Escherichia coli or baculovirus-infected insect cells at 667 uM by TR-FRET assay
Reported inhibition values for the following molecules.
Could you give me the number in %? Just the number is fine.

{"Mol Smiles": "O=C(Nc1ccccc1)Nc1ccccc1", "inhibition [%]": 0}
{"Mol Smiles": "Nc1ncccc1OCc1ccccc1", "inhibition [%]": 0}
{"Mol Smiles": "Nc1ccc2ncc(-c3ccccc3)n2n1", "inhibition [%]": 57}
{"Mol Smiles": "Cc1ccc(C(=O)NC2CC2)cc1F", "inhibition [%]": 0}
{"Mol Smiles": "Nc1n[nH]c2ncccc12", "inhibition [%]": 65}

Sample Nc1[nH]nc2ccccc12 — what was its inhibition?
47

Sample c1cnc2[nH]ccc2c1 — what was its inhibition?
29

Sample CC(C)(C)c1cc(NC(=O)Nc2ccccc2)no1 — what was its inhibition?
2

Sample c1ccc2[nH]ncc2c1 — what was its inhibition?
15

Sample c1ccc(-c2cnc3nccnn23)cc1 — what was its inhibition?
0

###

# Target System: Phosphatidylinositol 4,5-bisphosphate 3-kinase catalytic subunit delta isoform (Homo sapiens)
# Experimental Details: Inhibition of PI3Kdelta expressed in Escherichia coli or baculovirus-infected insect cells using gamma-[33P]ATP at 400 uM by scintillation proximity assay
Test Readout: inhibition (%)
Could you give me the number in %? Just the number is fine.

Record excerpt, results attached:
{"Mol Smiles": "CC(C)(C)c1cc(NC(=O)Nc2ccccc2)no1", "inhibition / %": 41}
{"Mol Smiles": "Nc1[nH]nc2ccccc12", "inhibition / %": 19}
{"Mol Smiles": "c1ccc(Nc2ncccn2)cc1", "inhibition / %": 19}

Sample Nc1ccc2ncc(-c3ccccc3)n2n1 — what was its inhibition?
90

Sample O=C(Nc1ccccc1)Nc1cccc(C(F)(F)F)c1 — what was its inhibition?
10

Sample Cc1ccc(C(=O)NC2CC2)cc1F — what was its inhibition?
10

Sample c1ccc(Nc2ccccc2)cc1 — what was its inhibition?
7

Sample Cc1ccc(NC(=O)Nc2cc(C(C)(C)C)nn2-c2ccccc2)cc1 — what was its inhibition?
27

###

# Target System: Mitogen-activated protein kinase 8 (Homo sapiens)
# Sequence (P45983 whole entry): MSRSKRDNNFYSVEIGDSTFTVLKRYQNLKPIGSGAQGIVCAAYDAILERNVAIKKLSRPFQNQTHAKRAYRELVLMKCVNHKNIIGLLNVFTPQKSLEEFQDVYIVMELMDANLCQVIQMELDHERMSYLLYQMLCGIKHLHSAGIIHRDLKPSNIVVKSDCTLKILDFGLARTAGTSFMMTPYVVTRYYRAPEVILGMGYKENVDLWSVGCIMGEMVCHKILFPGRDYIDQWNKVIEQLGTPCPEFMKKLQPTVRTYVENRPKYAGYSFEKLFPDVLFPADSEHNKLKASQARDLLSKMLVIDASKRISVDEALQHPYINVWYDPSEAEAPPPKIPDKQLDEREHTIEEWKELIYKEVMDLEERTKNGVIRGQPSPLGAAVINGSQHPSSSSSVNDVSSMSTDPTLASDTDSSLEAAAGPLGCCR
# Experimental Details: Inhibition of JNK1 expressed in Escherichia coli or baculovirus-infected insect cells at 667 uM by TR-FRET assay
Reported inhibition values for the following compounds.

Record excerpt, results attached:
{"Mol Smiles": "CC(C)(C)c1cc(NC(=O)Nc2ccccc2)no1", "Test Readout": "inhibition", "Measured Value": "4%"}
{"Mol Smiles": "O=C(Nc1ccccc1)Nc1cccc(C(F)(F)F)c1", "Test Readout": "inhibition", "Measured Value": "0%"}
{"Mol Smiles": "Cc1ccc(NC(=O)Nc2cccc(C(F)(F)F)c2)cc1", "Test Readout": "inhibition", "Measured Value": "0%"}

We next turn to a different compound, shown below.
Sample c1cnc2[nH]ccc2c1 — what was its inhibition?
15%

###

# Target System: UniProt P04626
# Experimental Details: Inhibition of ErbB2 expressed in Escherichia coli or baculovirus-infected insect cells at 400 uM by TR-FRET assay
Reported inhibition values for the following compounds.
Could you give me the number in %? Just the number is fine.

Record excerpt, results attached:
{"Mol Smiles": "CC(C)(C)c1cc(NC(=O)Nc2ccccc2)no1", "Measured Value": 0}
{"Mol Smiles": "c1ccc(Nc2ncccn2)cc1", "Measured Value": 4}
{"Mol Smiles": "c1ccc(Nc2ccccc2)cc1", "Measured Value": 0}
{"Mol Smiles": "Nc1ncccc1OCc1ccccc1", "Measured Value": 21}
{"Mol Smiles": "Nc1ccc2ncc(-c3ccccc3)n2n1", "Measured Value": 25}

Give UniProt P04626 inhibition for Cc1ccc(NC(=O)Nc2cccc(C(F)(F)F)c2)cc1
0

Give UniProt P04626 inhibition for O=C(Nc1ccccc1)Nc1cccc(C(F)(F)F)c1
0

Give UniProt P04626 inhibition for Nc1[nH]cnc2ncnc1-2
3

###

# Target System: Tyrosine-protein kinase Fes/Fps (Homo sapiens)
# Experimental Details: Inhibition of FES expressed in Escherichia coli or baculovirus-infected insect cells using ATP as substrate at 400 uM by fluorescence polarization assay
Reported inhibition values for the following molecules.
Could you give me the number in %? Just the number is fine.

{"Mol Smiles": "Cc1ccc(C(=O)NC2CC2)cc1F", "inhibition (%)": 1}
{"Mol Smiles": "c1ccc(Nc2ncccn2)cc1", "inhibition (%)": 35}

Sample O=C(Nc1ccccc1)Nc1ccccc1 — what was its inhibition?
13

Sample Nc1ccc2ncc(-c3ccccc3)n2n1 — what was its inhibition?
68

Sample Nc1n[nH]c2ncccc12 — what was its inhibition?
12

Sample Cc1ccc(NC(=O)Nc2cccc(C(F)(F)F)c2)cc1 — what was its inhibition?
0

Sample c1ccc(-c2cnc3nccnn23)cc1 — what was its inhibition?
70

Sample c1cnc2[nH]ccc2c1 — what was its inhibition?
9

###

# Target System: Receptor tyrosine-protein kinase erbB-4 (Homo sapiens) (UniProt Q15303)
# Sequence (Q15303 whole entry): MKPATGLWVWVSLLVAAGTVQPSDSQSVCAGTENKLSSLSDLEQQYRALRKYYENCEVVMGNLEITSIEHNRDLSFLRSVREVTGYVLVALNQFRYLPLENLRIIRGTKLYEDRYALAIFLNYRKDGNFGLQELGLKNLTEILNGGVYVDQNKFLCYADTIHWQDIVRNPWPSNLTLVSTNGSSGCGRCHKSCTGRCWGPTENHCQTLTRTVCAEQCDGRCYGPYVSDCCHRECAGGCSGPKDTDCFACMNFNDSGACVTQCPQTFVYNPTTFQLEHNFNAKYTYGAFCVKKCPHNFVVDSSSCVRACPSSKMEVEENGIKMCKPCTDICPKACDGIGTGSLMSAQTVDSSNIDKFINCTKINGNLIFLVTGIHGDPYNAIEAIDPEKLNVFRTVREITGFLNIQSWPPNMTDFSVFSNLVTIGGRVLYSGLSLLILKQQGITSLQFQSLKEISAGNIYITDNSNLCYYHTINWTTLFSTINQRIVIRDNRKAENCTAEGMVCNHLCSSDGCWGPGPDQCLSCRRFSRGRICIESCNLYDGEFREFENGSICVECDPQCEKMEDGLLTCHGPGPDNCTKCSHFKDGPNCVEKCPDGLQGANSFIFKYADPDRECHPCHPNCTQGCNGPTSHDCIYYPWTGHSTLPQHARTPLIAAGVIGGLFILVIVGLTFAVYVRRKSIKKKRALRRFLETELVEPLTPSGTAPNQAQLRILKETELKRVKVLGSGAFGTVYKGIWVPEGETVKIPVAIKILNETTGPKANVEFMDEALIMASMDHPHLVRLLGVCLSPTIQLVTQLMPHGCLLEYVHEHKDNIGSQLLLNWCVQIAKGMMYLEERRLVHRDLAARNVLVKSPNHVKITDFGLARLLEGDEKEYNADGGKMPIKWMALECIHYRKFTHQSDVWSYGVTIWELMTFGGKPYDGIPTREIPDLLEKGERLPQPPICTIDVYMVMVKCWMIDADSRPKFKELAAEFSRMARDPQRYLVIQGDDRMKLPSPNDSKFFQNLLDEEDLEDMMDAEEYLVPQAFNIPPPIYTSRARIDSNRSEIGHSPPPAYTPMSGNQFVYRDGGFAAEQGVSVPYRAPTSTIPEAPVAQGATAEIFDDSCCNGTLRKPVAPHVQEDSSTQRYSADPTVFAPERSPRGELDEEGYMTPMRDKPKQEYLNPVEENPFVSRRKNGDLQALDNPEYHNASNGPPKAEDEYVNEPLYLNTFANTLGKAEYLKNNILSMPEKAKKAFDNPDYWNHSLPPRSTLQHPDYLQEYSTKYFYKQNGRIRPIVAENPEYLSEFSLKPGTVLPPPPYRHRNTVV
# Experimental Details: Inhibition of ErbB4 expressed in Escherichia coli or baculovirus-infected insect cells at 400 to 667 uM by TR-FRET assay
Test Readout: inhibition
Provide a numeric answer, followed by its unit.

Record excerpt, results attached:
{"Mol Smiles": "Nc1ncccc1OCc1ccccc1", "inhibition": "17%"}
{"Mol Smiles": "c1ccc2[nH]ncc2c1", "inhibition": "5%"}

We next turn to a different compound, shown below.
Sample c1ccc(Nc2ncccn2)cc1 — what was its inhibition?
15%

###

# Target System: UniProtKB Q05397
# Sequence (Q05397 2-1052 limits assumed): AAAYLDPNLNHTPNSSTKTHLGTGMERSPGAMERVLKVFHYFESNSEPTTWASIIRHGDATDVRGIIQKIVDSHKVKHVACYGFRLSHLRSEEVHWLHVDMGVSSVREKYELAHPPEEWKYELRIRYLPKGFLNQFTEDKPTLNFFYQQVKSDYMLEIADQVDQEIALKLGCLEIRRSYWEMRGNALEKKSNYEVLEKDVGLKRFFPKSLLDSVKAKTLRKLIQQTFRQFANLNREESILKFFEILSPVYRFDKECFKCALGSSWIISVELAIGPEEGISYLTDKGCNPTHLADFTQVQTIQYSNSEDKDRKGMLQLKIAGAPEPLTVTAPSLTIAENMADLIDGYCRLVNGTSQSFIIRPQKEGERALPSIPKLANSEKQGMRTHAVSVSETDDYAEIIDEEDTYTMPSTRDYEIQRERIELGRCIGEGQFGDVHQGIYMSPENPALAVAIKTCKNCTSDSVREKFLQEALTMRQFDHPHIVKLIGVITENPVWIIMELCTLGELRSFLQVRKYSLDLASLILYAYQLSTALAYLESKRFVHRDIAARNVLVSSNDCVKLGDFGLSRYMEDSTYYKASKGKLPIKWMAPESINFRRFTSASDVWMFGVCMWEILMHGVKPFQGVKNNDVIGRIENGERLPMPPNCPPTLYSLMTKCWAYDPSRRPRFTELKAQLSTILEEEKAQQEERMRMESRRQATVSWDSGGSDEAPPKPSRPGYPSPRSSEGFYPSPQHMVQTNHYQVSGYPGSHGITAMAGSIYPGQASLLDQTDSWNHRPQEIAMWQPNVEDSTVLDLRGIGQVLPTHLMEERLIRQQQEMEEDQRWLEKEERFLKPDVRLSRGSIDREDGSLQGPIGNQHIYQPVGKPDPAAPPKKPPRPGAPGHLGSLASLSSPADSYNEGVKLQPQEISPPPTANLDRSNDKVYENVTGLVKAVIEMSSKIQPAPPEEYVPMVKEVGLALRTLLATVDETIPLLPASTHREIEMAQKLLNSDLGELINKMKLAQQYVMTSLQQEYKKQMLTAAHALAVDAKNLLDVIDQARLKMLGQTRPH
# Experimental Details: Inhibition of FAK expressed in Escherichia coli or baculovirus-infected insect cells at 400 uM by TR-FRET assay
Reported inhibition values for the following molecules.
Could you give me the number in %? Just the number is fine.

{"Mol Smiles": "c1ccc2[nH]ncc2c1", "inhibition, %": 3}

Sample O=C(Nc1ccccc1)Nc1cccc(C(F)(F)F)c1 — what was its inhibition?
6

Sample Cc1ccc(NC(=O)Nc2cc(C(C)(C)C)nn2-c2ccccc2)cc1 — what was its inhibition?
6

Sample Cc1ccc(C(=O)NC2CC2)cc1F — what was its inhibition?
6

###

# Target System: Serine/threonine-protein kinase pim-1 (Homo sapiens)
# Experimental Details: Inhibition of PIM1 expressed in Escherichia coli or baculovirus-infected insect cells at 400 uM by IMAP assay
Tick YES if inhibition is 20% or greater. Tick NO if inhibition is less than 20%.

{"Mol Smiles": "Nc1ccc2ncc(-c3ccccc3)n2n1", "Target System": "Serine/threonine-protein kinase pim-1 (Homo sapiens)", "Answer Label": "YES"}
{"Mol Smiles": "c1n[nH]c2c1CCCC2", "Target System": "Serine/threonine-protein kinase pim-1 (Homo sapiens)", "Answer Label": "NO"}
{"Mol Smiles": "c1ccc(Nc2ccccc2)cc1", "Target System": "Serine/threonine-protein kinase pim-1 (Homo sapiens)", "Answer Label": "NO"}
{"Mol Smiles": "c1ccc(Nc2ncccn2)cc1", "Target System": "Serine/threonine-protein kinase pim-1 (Homo sapiens)", "Answer Label": "NO"}
{"Mol Smiles": "Nc1[nH]nc2ccccc12", "Target System": "Serine/threonine-protein kinase pim-1 (Homo sapiens)", "Answer Label": "YES"}

Record Cc1ccc(NC(=O)Nc2cccc(C(F)(F)F)c2)cc1 ; criterion: inhibition no lower than 20%. Met?
NO

Record Nc1ncccc1OCc1ccccc1 ; criterion: inhibition no lower than 20%. Met?
YES

Record c1ccc2[nH]ncc2c1 ; criterion: inhibition no lower than 20%. Met?
YES

###

Reported inhibition values for the following molecules.
# Target System: RAC-beta serine/threonine-protein kinase (Homo sapiens) (UniProt P31751)
# Sequence (P31751 whole entry): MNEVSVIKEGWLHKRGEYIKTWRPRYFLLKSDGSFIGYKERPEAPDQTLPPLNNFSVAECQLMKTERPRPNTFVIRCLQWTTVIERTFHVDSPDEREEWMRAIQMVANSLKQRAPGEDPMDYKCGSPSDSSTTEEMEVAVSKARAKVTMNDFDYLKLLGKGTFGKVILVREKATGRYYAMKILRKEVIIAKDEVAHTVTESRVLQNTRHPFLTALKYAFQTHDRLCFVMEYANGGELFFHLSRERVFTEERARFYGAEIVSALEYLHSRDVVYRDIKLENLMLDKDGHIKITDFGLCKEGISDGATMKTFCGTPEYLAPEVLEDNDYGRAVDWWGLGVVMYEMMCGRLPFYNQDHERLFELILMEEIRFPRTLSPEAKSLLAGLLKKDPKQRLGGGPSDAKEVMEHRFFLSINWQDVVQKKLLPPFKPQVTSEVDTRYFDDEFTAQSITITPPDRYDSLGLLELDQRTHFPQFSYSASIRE
# Experimental Details: Inhibition of AKT2 expressed in Escherichia coli or baculovirus-infected insect cells using gamma-[33P]ATP at 400 uM by scintillation proximity assay
Could you give me the number in %? Just the number is fine.

{"Mol Smiles": "c1ccc(Nc2ccccc2)cc1", "inhibition (%)": 9}
{"Mol Smiles": "c1n[nH]c2c1CCCC2", "inhibition (%)": 13}
{"Mol Smiles": "c1ccc(-c2cnc3nccnn23)cc1", "inhibition (%)": 8}
{"Mol Smiles": "CC(C)(C)c1cc(NC(=O)Nc2ccccc2)no1", "inhibition (%)": 15}
{"Mol Smiles": "Cc1ccc(C(=O)NC2CC2)cc1F", "inhibition (%)": 9}
{"Mol Smiles": "Nc1n[nH]c2ncccc12", "inhibition (%)": 14}
{"Mol Smiles": "c1ccc(Nc2ncccn2)cc1", "inhibition (%)": 16}
{"Mol Smiles": "c1cnc2[nH]ccc2c1", "inhibition (%)": 19}

Sample Cc1ccc(NC(=O)Nc2cc(C(C)(C)C)nn2-c2ccccc2)cc1 — what was its inhibition?
12

Sample Cc1ccc(NC(=O)Nc2cccc(C(F)(F)F)c2)cc1 — what was its inhibition?
0

Sample O=C(Nc1ccccc1)Nc1cccc(C(F)(F)F)c1 — what was its inhibition?
6

Sample Nc1ccc2ncc(-c3ccccc3)n2n1 — what was its inhibition?
39

Sample Nc1[nH]nc2ccccc12 — what was its inhibition?
16

Sample c1ccc2[nH]ncc2c1 — what was its inhibition?
12
